Would you mind telling me the reported self-cleavage of each entry?
B1: LINE1-full (parent)
chain: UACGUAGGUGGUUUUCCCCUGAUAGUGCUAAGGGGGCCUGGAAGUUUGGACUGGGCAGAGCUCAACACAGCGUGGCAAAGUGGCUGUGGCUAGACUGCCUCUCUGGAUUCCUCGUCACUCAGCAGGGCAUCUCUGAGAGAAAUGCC

- Variants of: B1
- PROTOCOL TEXT: self-cleavage, relative activity (ratio to wild type); higher = more cleavage; in vitro, sequencing; the parent is a self-cleaving ribozyme
Just the number.

Qu. Data request, read-out self-cleavage, for C18A
Ans. 1.39

Qu. Data request, read-out self-cleavage, for U109C U115G
Ans. 1.04

Qu. Data request, read-out self-cleavage, for U47A U104C
Ans. 1.54

Qu. Data request, read-out self-cleavage, for G40A A140G
Ans. 1.12

Qu. Data request, read-out self-cleavage, for U81C A138C
Ans. 2.23

Qu. Data request, read-out self-cleavage, for G7C A142C
Ans. 1.1

Qu. Data request, read-out self-cleavage, for G11A A69G
Ans. 0.48

Qu. Data request, read-out self-cleavage, for A6G U12G
Ans. 0.85

Qu. Data request, read-out self-cleavage, for G49U U134C
Ans. 1.63

Qu. Data request, read-out self-cleavage, for U12A G72A
Ans. 1.41

Qu. Data request, read-out self-cleavage, for U5A A77G
Ans. 2.07

Qu. Data request, read-out self-cleavage, for A107U U132A
Ans. 1.88

Qu. Data request, read-out self-cleavage, for U100A U112C
Ans. 1.09

Qu. Data request, read-out self-cleavage, for U12C U96G
Ans. 0.28

Qu. Data request, read-out self-cleavage, for G70A G80A
Ans. 0.48

Qu. Data request, read-out self-cleavage, for A2C A140G
Ans. 1.28

Qu. Data request, read-out self-cleavage, for U45G A107U
Ans. 1.05

Qu. Data request, read-out self-cleavage, for U1A U91A
Ans. 1.27

Qu. Data request, read-out self-cleavage, for G36A A57G
Ans. 1.52

Qu. Data request, read-out self-cleavage, for U15C U130C
Ans. 1.19

Qu. Data request, read-out self-cleavage, for U23A G144A
Ans. 1.85

Qu. Data request, read-out self-cleavage, for U15C C103U
Ans. 1.53

Qu. Data request, read-out self-cleavage, for C98U U115A
Ans. 0.44

Qu. Data request, read-out self-cleavage, for U100A U108C
Ans. 1.96
